test: chemical genetic growth profiling, strain panel (AID 1159580);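 further: tested at 20 µM; growth read once vehicle control cultures reached saturation at 30 °C; lower values mean less growth of the strain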; details: S. cerevisiae deletion strains, growth OD, locus YNR030W, strain Alg12
Screen size: about 5,500 compounds; about 2,000 (36%) were called active. About 18% were inconclusive and are not listed. No stated cut-off is given here; in the data, active means normalized growth mostly below about 0.91 (no sharp cut-off); inconclusive means no clear call, values can overlap the other calls; inactive means mostly above about 0.92. The list shows a part of the results.
Hi! Could you answer with just one of these? active, inactive

- molecule: "Cc1ccc(S(=O)(=O)N2CCCCCC2)cc1"
  classification: "inactive"
- molecule: "CC(C)(C)c1cc(C(=O)NN)n[nH]1"
  classification: "inactive"
- molecule: "CCOC(=O)c1ccc(N2CC3CCCCN3C2c2ccc(Cl)c(Cl)c2)cc1 (stereo not drawn)"
  classification: "inactive"

## Task What outcome does the record of this test show for O=C(NNC(=S)NC1CC2C=CC1C2)c1cccnc1 (stereo not drawn) ?
## Result inactive

## Task What outcome does the record of this test show for CCOC(=O)c1ccc(Oc2ncc(C(F)(F)F)cc2Cl)cc1 ?
## Result inactive

## Task What outcome does the record of this test show for COc1cccc(C2SCc3cc(C)c(C)cc3CS2)c1O ?
## Result inactive

## Task What outcome does the record of this test show for CC(=O)OCCCCN1C(=O)c2ccccc2C1=O ?
## Result inactive

## Task What outcome does the record of this test show for O=C(NNC(=O)c1ccc[nH]1)Nc1cc(Cl)cc(Cl)c1 ?
## Result inactive

## Task What outcome does the record of this test show for COC(=O)C(Cc1c[nH]c2ccccc12)NC(=O)c1c(Cl)cccc1Cl (stereo not drawn) ?
## Result inactive

## Task What outcome does the record of this test show for O=C(O)C1c2ccccc2C(=O)N(Cc2ccc3c(c2)OCO3)C1c1cccnc1 (stereo not drawn) ?
## Result inactive

## Task What outcome does the record of this test show for O=[N+]([O-])c1ccc(NCCCCCO)nc1 ?
## Result inactive

## Task What outcome does the record of this test show for CC(=O)c1ccc(Sc2ccccn2)c([N+](=O)[O-])c1 ?
## Result inactive

## Task What outcome does the record of this test show for CCOC(=O)c1c[nH]c2c(F)cccc2c1=O ?
## Result inactive

## Task What outcome does the record of this test show for Cc1cc(S(=O)(=O)NC(Cc2ccc([N+](=O)[O-])cc2)C(=O)O)c(Cl)cc1Cl (stereo not drawn) ?
## Result inactive
